The origin of these recorded values is patent US20250019450A1.

Parameter Fold over parental 293T: see the listing below.
Target: T1, human IL-12RB1 overexpressed on 293T cells (Example 2) (human, UniProt P42701 24-662)
T1 construct: whole, on cells
Test: FACS, hybridoma supernatant, 293T
Quick reminder: number only, in fold, skip the unit.

For orientation, consider the following solved cases.
85801_01L02 (antibody, V domains shown, also called 85801_01L02A) VH: QVQLVHSGPEVKKPGASVKVSCKASGYTFTDYYMHWVRQAPGQGLEWMGWINPDSGGTNYAQKFQGRVTMTRDTSISTAYMELSRLRSDDTAVYHCAREGATSNFDYWGQGTLVTVSS VL: DIQMTQSPSSLSASVGDRVTITCRASQGISNYLAWFQQKPGKAPTSLIYAASNLQGGVPSKFSGSGSGTDFTLTISSLQPEDFATYYCQQYRYYPFTFGPGTKVDIK :: 117
85801_04D10 (antibody, V domains shown, also called 85801_04D10A) VH: EVQLLESGGGLVQPGGSLRLSCAASGFTFSSYAMSWVRQAPGKGLEWVAGISGSGGGIYYADSVKGRFTISRDNSKNTLYLQLNSLRADDTAVYYCARRLIGYWYFDLWGRGTLVPVSS VL: DIQMTQSPSSLSASVGDRVTITCRASQGISNYLAWFQQKPGKAPKSLIYAASSLQSGVPSKFSGSGSGTDFTLTISSLQPEDFATYYCQQYNSYPPTFGGGTKVEIK :: 76

Next item in the queue.
Q: Retrieve Fold over parental 293T measured for 85801_10K15 (antibody, V domains shown, also called 85801_10K15A) VH: QITLKESGPTLVKPTQTLTLTCTFFGFSLNTGGVGVGWIRQPPGKALEWLTLIYWNDDKRYSPSLKSRLTITKDTSKNQVVLTMTNMDPVDTATYYCAHTLRWYHGFDIWGQGTMVTVSS VL: QTVVTQEPSFSVSPGGTVTLTCGLTSGSVSTSYYPSWYQQTPGQAPRTLIYSTYTRSSGVPDRFSGSILGNKAALTITGAQADDESDYYCVLYMGSGIWVFGGGTKLTVL and print it.
A: 57
